Data origin, for the record: ChEMBL document CHEMBL4011628

# protocol.description: Half life in acetate buffer at pH 4.5 at 10 uM by UPLC/MS analysis
# Assay type: physicochemical
Field: half-life at 10 µM. Provide a value for each of the compounds that follow.

Solved cases (3 shown):
{"columns": ["smiles.data", "recorded.metric", "result"],
 "data": [
  ["Cc1ccc(CNC(=O)n2cnc3ccccc32)cc1", "half-life at 10 µM", "> 2 h"],
  ["O=C(NCc1ccccc1)n1cnc2ccccc21", "half-life at 10 µM", "1.57 h"],
  ["Cc1cccc(CNC(=O)n2cnc3ccccc32)c1", "half-life at 10 µM", "> 2 h"]
]}

Dear colleague, could you send me half-life at 10 µM for each of the items below? Thanks.
1. CCCCCCNC(=O)N1C(=O)c2ccccc2C1=O
2. Nc1nc2ccccc2n1C(=O)NCc1ccccc1
3. Cc1ccccc1CNC(=O)n1cnc2ccccc21
4. Cc1nc2ccccc2n1C(=O)NCCCCc1ccccc1
5. Cc1cccc(CNC(=O)n2c(N)nc3ccccc32)c1
6. Cc1ccc(CNC(=O)n2c(N)nc3ccccc32)cc1

Solution:
> 2 h
0.7 h
1.37 h
0.133 h
0.45 h
0.567 h

Dear colleague, could you send me half-life at 10 µM for each of the items below? Thanks.
1. O=C(NCCCCc1ccccc1)n1nnc2ncccc21
2. O=C(NCCCCc1ccccc1)N1C(=O)c2ccccc2C1=O

Solution:
1. > 2 h
2. > 2 h

Dear colleague, could you send me half-life at 10 µM for each of the items below? Thanks.
1. O=C(NCCCCc1ccccc1)n1cnc2ccccc21
2. CCCCCCNC(=O)n1nnc2ccccc21
3. O=C(NCCCCc1ccccc1)n1nnc2ccccc21
4. COc1nc2ccccc2n1C(=O)NCCCCc1ccccc1
5. CCCCCCNC(=O)n1ncc2ccccc21
6. O=C(NCCCCc1ccccc1)n1c(=O)[nH]c2ccccc21
7. CCCCCCNC(=O)n1nnc2ncccc21

Solution:
1: > 2 h; 2: > 2 h; 3: > 2 h; 4: > 2 h; 5: > 2 h; 6: > 2 h; 7: > 2 h

Dear colleague, could you send me half-life at 10 µM for each of the items below? Thanks.
1. Cc1ccccc1CNC(=O)n1c(N)nc2ccccc21
2. Nc1nc2ccccc2n1C(=O)NCCCCc1ccccc1

Solution:
["0.45 h", "0.717 h"]

====

# measured.on: Acid ceramidase (Homo sapiens)
# protocol.description: Inhibition of human C-terminal His-tagged acid ceramidase variant 1 expressed in HEK293 cells using fluorogenic substrate Rbm-14-12 preincubated for 30 mins followed by substrate addition measured after 1 hr by fluorogenic assay
# Format: cell-based
Each record is given T if its reported IC50 is strictly below 8 nM. Records at or above 8 nM are given F.

Answered examples (5):
{"columns": ["smiles.data", "class.name"],
 "data": [
  ["CCCCCCNC(=O)n1c(N)nc2ccccc21", "T"],
  ["Cc1cccc(CNC(=O)n2c(N)nc3ccccc32)c1", "F"],
  ["O=C(NCCCCc1ccccc1)Nc1nc2ccccc2o1", "F"],
  ["Cc1ccccc1CNC(=O)n1c(N)nc2ccccc21", "F"],
  ["O=C(NCc1ccccc1)n1cnc2ccccc21", "F"]
]}

Exercise: is_below(IC50, 8 nM) for O=C(NCCCCc1ccccc1)n1ncc2ccccc21 ?
Solution: T

Exercise: Moving on to CCCCCCNC(=O)Nc1nc2ccccc2[nH]1
Solution: F

Exercise: Moving on to Cc1cccc(CNC(=O)n2cnc3ccccc32)c1
Solution: F

Exercise: Moving on to CCCCCCNC(=O)n1nnc2ncccc21
Solution: T

Exercise: Moving on to CCCCCCNC(=O)n1nnc2ccccc21
Solution: T

Exercise: Moving on to CCCCCCNC(=O)n1cc(F)c(=O)[nH]c1=O
Solution: F

Exercise: Moving on to CCCCCCNC(=O)n1cnc2ccccc21
Solution: T

Exercise: Moving on to O=C(NCCCCc1ccccc1)n1nnc2ncccc21
Solution: T

====

Field: pIC50. Provide a value for each of the molecules that follow.
# measured.on: Acid ceramidase (Homo sapiens)
# Sequence (Q13510 whole entry): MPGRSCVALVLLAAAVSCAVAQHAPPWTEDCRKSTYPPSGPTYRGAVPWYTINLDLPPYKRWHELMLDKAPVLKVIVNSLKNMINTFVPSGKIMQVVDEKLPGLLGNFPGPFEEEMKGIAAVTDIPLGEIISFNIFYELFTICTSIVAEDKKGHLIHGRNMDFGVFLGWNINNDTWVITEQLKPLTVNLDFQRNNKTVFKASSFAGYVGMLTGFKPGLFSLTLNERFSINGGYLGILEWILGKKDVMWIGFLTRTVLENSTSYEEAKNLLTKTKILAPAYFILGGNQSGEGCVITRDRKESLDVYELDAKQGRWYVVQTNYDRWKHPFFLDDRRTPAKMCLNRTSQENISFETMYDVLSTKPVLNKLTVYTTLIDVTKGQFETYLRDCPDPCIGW
# protocol.description: Inhibition of acid ceramidase in human G361 cells using fluorogenic substrate Rbm-14-12 preincubated for 2 hrs followed by substrate addition measured after 3 hrs by fluorogenic assay
# Assay type: cell-based
Numbers only, as −log10 of the molar value.

{"columns": ["smiles.data", "number"],
 "data": [
  ["O=C(NCCCCc1ccccc1)n1cnc2ccccc21", 6.64],
  ["COc1nc2ccccc2n1C(=O)NCCCCc1ccccc1", 5.56],
  ["CCCCCCNC(=O)n1cc(F)c(=O)[nH]c1=O", 6.12],
  ["O=C(NCc1ccccc1)n1cnc2ccccc21", 5.55]
]}

Query molecule follows.
Exercise: Using the record for Cc1ccc(CNC(=O)n2cnc3ccccc32)cc1 , report its pIC50.
Solution: 6.03

====

# protocol.description: Half life in mouse plasma at 2 uM up to 120 mins by UPLC/MS analysis
# Assay type: ADME, cell-free
recorded.metric: half-life at 2 µM (min)
Answers are plain numbers, in min.

Solved cases (2 shown):
{"columns": ["smiles.data", "half-life at 2 µM [min]"],
 "data": [
  ["CCCCCCNC(=O)n1nnc2ccccc21", 13],
  ["Cc1ccc(CNC(=O)n2cnc3ccccc32)cc1", 94]
]}

Dear colleague, could you send me half-life at 2 µM for each of the items below? Thanks.
1. O=C(NCc1ccccc1)n1cnc2ccccc21
2. CCCCCCNC(=O)N1C(=O)c2ccccc2C1=O
3. Cc1nc2ccccc2n1C(=O)NCCCCc1ccccc1
4. Cc1cccc(CNC(=O)n2cnc3ccccc32)c1

Solution:
[108, 29, 11, 71]

Dear colleague, could you send me half-life at 2 µM for each of the items below? Thanks.
1. Cc1ccccc1CNC(=O)n1cnc2ccccc21
2. O=C(NCCCCc1ccccc1)N1C(=O)c2ccccc2C1=O
3. Nc1nc2ccccc2n1C(=O)NCc1ccccc1
4. Nc1nc2ccccc2n1C(=O)NCCCCc1ccccc1

Solution:
1: 44; 2: 23; 3: 13; 4: 9

====

# measured.on: Acid ceramidase (Homo sapiens, UniProt Q13510)
# protocol.description: Inhibition of human C-terminal His-tagged acid ceramidase variant 1 expressed in HEK293 cells using fluorogenic substrate Rbm-14-12 preincubated for 30 mins followed by substrate addition measured after 1 hr by fluorogenic assay
# Type: cell-based
Each record is given class 1 if its reported IC50 is strictly below 10 nM. Records at or above 10 nM are given class 0.

{"columns": ["smiles.data", "class.name"],
 "data": [
  ["O=C(NCCCCc1ccccc1)n1c(=O)n(C(=O)NCCCCc2ccccc2)c2ccccc21", "class 0"]
]}

Note: attention shifts to another entry.
Exercise: is_below(IC50, 10 nM) for Nc1nc2ccccc2n1C(=O)NCc1ccccc1 ?
Solution: class 0

====

# protocol.description: Half life in PBS buffer at pH 7.4 at 10 uM by UPLC/MS analysis
# Format: physicochemical
recorded.metric: half-life at 10 µM

Solved cases (2 shown):
{"columns": ["smiles.data", "recorded.metric", "result"],
 "data": [
  ["O=C(NCCCCc1ccccc1)n1c(=O)n(C(=O)NCCCCc2ccccc2)c2ccccc21", "half-life at 10 µM", "> 120 min"],
  ["O=C(NCCCCc1ccccc1)n1nnc2ncccc21", "half-life at 10 µM", "2 min"]
]}

Exercise: Using the record for O=C(NCCCCc1ccccc1)n1c(=O)[nH]c2ccccc21 , report its half-life at 10 µM.
Solution: > 120 min

====

# protocol.description: Half life in PBS buffer at pH 7.4 at 10 uM by UPLC/MS analysis
# Type: physicochemical
Field: half-life at 10 µM. Provide a value for each of the compounds that follow.

Dear colleague, could you send me half-life at 10 µM for each of the items below? Thanks.
1. O=C(NCc1ccccc1)n1cnc2ccccc21
2. COc1nc2ccccc2n1C(=O)NCCCCc1ccccc1
3. Cc1ccc(CNC(=O)n2cnc3ccccc32)cc1

Solution:
1: > 2 h; 2: > 2 h; 3: > 2 h

====

# protocol.description: Half life in acetate buffer at pH 4.5 at 10 uM by UPLC/MS analysis
# Assay type: physicochemical
recorded.metric: half-life at 10 µM

Solved cases (2 shown):
{"columns": ["smiles.data", "half-life at 10 µM"],
 "data": [
  ["O=C(NCCCCc1ccccc1)n1c(=O)n(C(=O)NCCCCc2ccccc2)c2ccccc21", "> 2 h"],
  ["CCCCCCNC(=O)n1cnc2ccccc21", "> 2 h"]
]}

Exercise: Using the record for O=C(NCCCCc1ccccc1)n1ncc2ccccc21 , report its half-life at 10 µM.
Solution: > 2 h
